Below, each entry is listed with its recorded activity score.
# protocol_text: Activators via SNCA 5'UTR binding, MLPCN (AID 1814)
# details: alpha-synuclein 5'UTR reporter, activators screen; stronger effect = lower value; tested at 7.5 µM
Screen size: about 300,000 compounds; about 22,000 (7.3%) were called active. About 2% were inconclusive and are not listed. Only a selection was taken, and actives are over-represented in it overall.
Answer with a number only, understood to be in %.

| molecule | uom | activity score |
| --- | --- | --- |
| C/C(=C\C(=O)c1cccnc1)Nc1ccc(C)c(C)c1 | % | -88.7 |
| COC(=O)c1ccc(NC(=O)Nc2ccc(C)cc2)cc1 | % | -81.9 |
| Cc1ccc2nc(-c3ccc(SCC(=O)Nc4cc(C)on4)nc3)[nH]c2c1 | % | -160 |
| Cc1c(Cl)c([N+](=O)[O-])nn1Cc1ccc(C(=O)N/N=C\c2cc(Cl)ccc2O)o1 | % | 81.2 |
| C=CCOc1ccc(/C=C2\SC(=S)N(CCC(=O)O)C2=O)cc1 | % | 80 |

Now, please, on to the next molecule.
Record O=C(/C=C/c1ccc2c(c1)OCCO2)c1ccc(O)cc1 . Reported activity score: -260

###

# protocol_text: Activators via SNCA 5'UTR binding, MLPCN (AID 1814)
# details: alpha-synuclein 5'UTR reporter, activators screen; stronger effect = lower value; tested at 7.5 µM
Among all 300,000 compounds or so, about 22,000 (7.3%) were called active. Not shown: some 2% with an inconclusive outcome. This excerpt belongs to a sample that is enriched for actives.
Below, each entry is listed with its recorded activity score.

Past entries and their recorded results:
| molecule | quantity_measured | endpoint_value |
| --- | --- | --- |
| CN(c1ccc(O)cc1)c1nc(-c2cccnc2)cs1 | activity score | -137% (active) |
| C/C(=N\NC(=O)OC(C)(C)C)c1ccc[nH]1 | activity score | -122% (active) |
| CC1CCCCN1S(=O)(=O)c1ccc(C(=O)Nc2nnc(-c3cccs3)o2)cc1 (centres undefined) | activity score | 89.9% (inactive) |
| Cc1cccc(-[n+]2c(-c3cccc(Br)c3)[nH]c3nc4ccccc4nc32)c1 | activity score | 73.9% (inactive) |
| O=C(c1cnn(-c2ccc(Cl)cc2)c1)c1ccccc1O | activity score | -238% (active) |
| O=C1c2ccccc2C(=O)N1CCOc1ccc(F)cc1 | activity score | -91.2% (active) |

Record COc1ccc(/C=N/Nc2nc3ccccc3o2)cc1OC . Reported activity score: -162% (active)

Record O=C(/C=C/c1ccc(Cl)c([N+](=O)[O-])c1)c1ccc(O)cc1 . Reported activity score: -156% (active)

Record O=C(Nc1cccc(O)c1)c1ccc(C(=O)c2ccccc2)o1 . Reported activity score: -120% (active)

###

# protocol_text: Activators via SNCA 5'UTR binding, MLPCN (AID 1814)
# details: alpha-synuclein 5'UTR reporter, activators screen; stronger effect = lower value; tested at 7.5 µM
In all, about 300,000 compounds went through this assay and about 22,000 (7.3%) were called active. About 2% were inconclusive and are not listed. The sample as a whole holds a higher share of actives than the screen did.
Below, each entry is listed with its recorded activity score.
Answer with a number only, understood to be in %.

Past entries and their recorded results:
| smiles_str | activity score, % |
| --- | --- |
| O=C(NC(Nc1nc2ccc([N+](=O)[O-])cc2s1)(C(F)(F)F)C(F)(F)F)c1ccccc1 | 94.1 |
| CCN(CC)C(=O)c1sc2nc(-c3ccccc3)ccc2c1N | -178 |
| CCN1CCN(C(=O)CSc2ccc(C)cc2)CC1 | -69.7 |
| CN1C2CCC1/C(=C\c1ccccc1Cl)C(=O)/C2=C\c1ccccc1Cl | -89 |

Now, please, on to the next compound.
Record Cc1cccc(N=C2NN=C(c3c[nH]c4ccccc34)CS2)c1 . Reported activity score: -102
